- System: HEK293
- assayExplanation: NOD2 signaling inhibitors in MDP-stimulated cells, cell-based, uHTS, luminescence (AID 2001)
- Type: functional
- conditionSet: Homo sapiens
Active and inactive are the calls of the source. How the calls were made is not given here.
Outcomes you can answer with include only these: y (active), n (inactive)

Here are 3 molecules together with their reported answers.
1) COc1cccc(C(=O)Nc2sc3c(c2C(=O)O)CCCC3)c1 : n
2) O=C(Nc1sc2c(c1C(=O)O)CCCC2)c1ccccc1Cl : n
3) Cc1ccc(-c2nc(NC(=O)c3nn(C)cc3[N+](=O)[O-])sc2C)cc1 : y

Please find the next molecule below.
Query: Please share the test call associated with "CCc1nnc(NC(=O)c2ccc(Cl)c(S(=O)(=O)N3CCc4ccccc4C3)c2)s1" .
Response: y

Values compiled from ChEMBL document CHEMBL1201862.
